Source listed as patent US20250206828A1.

molecular target: T1, human adenosine A2A receptor (A2aR) (human, UniProt P29274 1-412); assay: flow cytometry titration, HEK293-hA2aR cells, purified antibody
T1 construct: Assays used HEK293 cells stably overexpressing human A2aR (BPS Bioscience 79381), human A2aR-expressing CHO cells, or endogenous A2aR on human PBMC; also called human A2aR; hA2aR
T1 sequence (P29274 whole entry): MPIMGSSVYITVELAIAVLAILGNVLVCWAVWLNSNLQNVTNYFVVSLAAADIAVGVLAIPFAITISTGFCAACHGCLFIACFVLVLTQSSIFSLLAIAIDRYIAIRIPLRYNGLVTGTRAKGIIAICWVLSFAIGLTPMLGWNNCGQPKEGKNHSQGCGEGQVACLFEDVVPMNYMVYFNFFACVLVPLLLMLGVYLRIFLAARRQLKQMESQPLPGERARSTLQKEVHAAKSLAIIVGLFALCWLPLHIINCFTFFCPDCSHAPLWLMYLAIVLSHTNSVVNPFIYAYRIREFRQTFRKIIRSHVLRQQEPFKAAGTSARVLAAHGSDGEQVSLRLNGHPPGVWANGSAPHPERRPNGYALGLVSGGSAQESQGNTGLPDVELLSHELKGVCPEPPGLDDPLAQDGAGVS
observable: EC50 (nM)

binder	experimental value
Hu3F8-H6/Hu3F8-L3 (antibody, human IgG1, V domains shown, Human IgG1 FES (L234F, L235E, P331S) and human Ig kappa constant domains; also called Hu3F8 VH6/VL3) VH: EVQLVQSGAEVKKPGESLRISCKASGFTFTRYWMNWVRQMPGKGLEWIGRIDPSDSETHYNHKFWGHATLSVDKSSSTVYLQWSSLKASDTAMYYCLRSLYGKGDYWGQGTTVTVSS VL: DVVMTQSPLSLPVTLGQPASISCRSSQSIVHSNGNTYLEWYQQRPGQSPRLLIYKVSNRFSGVPDRFSGSGSGTDFTLKISRVEAEDVGVYYCYQGSHVPLTFGGGTKVEIK	0.59
Hu3F6-H5/Hu3F6-L8 (antibody, human IgG1, V domains shown, Human IgG1 FES (L234F, L235E, P331S) and human Ig kappa constant domains; also called Hu3F6 VH5/VL8) VH: EVQLVQSGAEVKKPGASVKVSCKTSGFAFTSYWMNWVRQAPGQGLEWIGRIDPSDSEAHYAHKFWGRATLTVDKSSSTVYMELSSLRSEDTAVYYCLRSLYGKGDYWGHGTTVTVSS VL: DVVMTQSPLSLPVTPGEPASISCRSSQSLVHRNGNTYLEWYLQKPGQSPQLLIYKVSNRFSGVPDRFSGSGSGTDFTLKISRVEAEDVGVYYCYQGSHVPLTFGGGTKVEIK	0.59
Hu3F8-H4/Hu3F8-L3 (antibody, human IgG1, V domains shown, Human IgG1 FES (L234F, L235E, P331S) and human Ig kappa constant domains; also called Hu3F8 VH4/VL3) VH: EVQLVQSGAEVKKPGASVKVSCKASGFTFTRYWMNWVRQAPGQGLEWIGRIDPSDSETHYNHKFWGRATLTVDKSTSTVYMELSSLRSEDTAVYYCLRSLYGKGDYWGQGTTVTVSS VL: DVVMTQSPLSLPVTLGQPASISCRSSQSIVHSNGNTYLEWYQQRPGQSPRLLIYKVSNRFSGVPDRFSGSGSGTDFTLKISRVEAEDVGVYYCYQGSHVPLTFGGGTKVEIK	0.6
